From: patent US5041653A

Each record here notes measured viability at 1 h, 10000 µM.
# experiment description: Cytotoxicity test (% cell survival, hypoxic HA-1 cells)
# Type: cell-based, Chinese hamster
# condition summary: chinese hamster, ha-1 cells, hypoxic, 10 mM test compound, 1 hr at 22° C., hypoxia (N2 containing 5% CO2)
Enter your answer as a number in %; do not include the unit.

INSERT INTO measurements (compound, measurement_units, endpoint_value) VALUES
  ('NC(=O)c1cccc(OCCO)c1 [3-(2-hydroxyethoxy)benzamide]', '%', 89);

Please look at the following compound next.
Input NC(=O)c1cccc(O)c1 [3-hydroxybenzamide] , output reported viability at 1 h, 10000 µM.
90
